- target: β-secretase (BACE) (Homo sapiens, UniProt P56817)
- Construct: purchased Panvera
- Sequence (P56817 46-501): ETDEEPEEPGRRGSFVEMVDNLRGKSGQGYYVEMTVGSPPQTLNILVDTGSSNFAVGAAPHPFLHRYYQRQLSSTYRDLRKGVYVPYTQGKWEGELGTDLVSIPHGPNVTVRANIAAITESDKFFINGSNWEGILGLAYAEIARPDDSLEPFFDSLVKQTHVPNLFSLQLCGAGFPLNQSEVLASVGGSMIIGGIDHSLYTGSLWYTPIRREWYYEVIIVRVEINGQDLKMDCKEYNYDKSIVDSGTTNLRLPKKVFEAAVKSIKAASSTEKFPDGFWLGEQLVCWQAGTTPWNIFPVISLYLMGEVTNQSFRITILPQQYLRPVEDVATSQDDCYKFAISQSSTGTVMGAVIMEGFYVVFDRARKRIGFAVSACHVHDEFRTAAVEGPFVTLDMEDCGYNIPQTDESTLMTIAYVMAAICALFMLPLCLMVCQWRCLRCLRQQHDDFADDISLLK
- measurement_notes: BACE FS1 % Inhibition Assay
- Type: biochemical
- experimental_parameters: 0.3 μM compound; FS1 substrate
quantity_name: % Inhibition (FS)

[[record]]
compound = "NC1=Nc2ccc(-c3ccccc3F)cc2CN1CCNC(=O)C1CCC(C(F)(F)F)CC1 (centres unmarked)"
quantity_name = "% Inhibition (FS)"
reported_measurement = "<30%"

[[record]]
compound = "NC1=Nc2ccc(-c3ccc4ccccc4c3)cc2CN1CCNC(=O)C1CCCC1"
quantity_name = "% Inhibition (FS)"
reported_measurement = "<30%"

[[record]]
compound = "CN(Cc1cc(-c2ccccc2)on1)C(=O)CC[C@@H](C1CCCCC1)N1Cc2cc(-c3ccccc3F)ccc2N=C1N"
quantity_name = "% Inhibition (FS)"
reported_measurement = "38%"

[[record]]
compound = "CN(Cc1csc(-c2ccccc2)n1)C(=O)CC[C@@H](C1CCCCC1)N1Cc2cc(-c3ccccc3F)ccc2N=C1N"
quantity_name = "% Inhibition (FS)"
reported_measurement = "35%"

[[record]]
compound = "CC(C)(C)C(=O)NCCN1Cc2cc(-c3cnc4ccccc4c3)ccc2N=C1N"
quantity_name = "% Inhibition (FS)"
reported_measurement = "36%"

[[record]]
compound = "CN(C(=O)CCC(C1CCCCC1)N1Cc2cc(Oc3ccccc3)ccc2N=C1N)C1CCC(c2nn[nH]n2)CC1 (centres unmarked)"
quantity_name = "% Inhibition (FS)"
reported_measurement = "<30%"

[[record]]
compound = "NC1=Nc2ccc(-c3cnc4ccccc4c3)cc2CN1CCNC(=O)C1CCC1"
quantity_name = "% Inhibition (FS)"
reported_measurement = "<30%"

[[record]]
compound = "CCCCC(CC)C(=O)NCCN1Cc2cc(-c3ccc4ccccc4c3)ccc2N=C1N (centres unmarked)"
quantity_name = "% Inhibition (FS)"
reported_measurement = "<30%"

